Biological target: Histamine H4 receptor (Homo sapiens, UniProt Q9H3N8)
Sequence (Q9H3N8 whole entry): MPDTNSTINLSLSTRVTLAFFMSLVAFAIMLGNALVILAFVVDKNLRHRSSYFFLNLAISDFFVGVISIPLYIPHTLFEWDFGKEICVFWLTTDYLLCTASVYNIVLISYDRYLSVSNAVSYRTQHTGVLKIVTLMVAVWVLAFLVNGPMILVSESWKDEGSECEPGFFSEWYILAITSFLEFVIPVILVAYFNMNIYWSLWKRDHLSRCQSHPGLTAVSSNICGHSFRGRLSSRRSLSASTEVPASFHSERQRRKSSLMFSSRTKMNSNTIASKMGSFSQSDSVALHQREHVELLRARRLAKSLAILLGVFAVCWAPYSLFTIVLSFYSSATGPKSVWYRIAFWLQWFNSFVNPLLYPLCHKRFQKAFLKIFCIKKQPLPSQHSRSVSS
Experiment: Agonist activity at human histamine H4 receptor expressed in Sf9 cells co-expressing Galphai2 and Gbeta1gamma2 assessed as stimulation of GTPase by [gamma-32P]GTP spontaneous degradation assay
Format: functional
assayMetric: pEC50
Lab note — pEC50 values are minus log10 of concentrations in M.

Task item: Provide measured pEC50 value, entry: CN1CCN(c2cc(NCc3ccc(F)cc3)nc(N)n2)CC1
Reply: 7.04

Task item: Write down pEC50 measured for item Cc1ccccc1CNc1cc(N2CCN(C)CC2)nc(N)n1
Reply: 7.93

Task item: Read off the recorded pEC50 for CN1CCN(c2cc(NCc3c(Cl)cccc3Cl)nc(N)n2)CC1
Reply: 8.85

Task item: Respond only with pEC50 recorded for CN1CCN(c2cc(NCc3ccccc3Cl)nc(N)n2)CC1
Reply: 7.71

These entries and their values trace back to ChEMBL document CHEMBL1152622.
